Reference source for all entries: patent US7078404B2

target: UniProtKB P06737; assay: Glycogen phosphorylase a activity test; assay type: biochemical; details: 10 μM concentration of the test substance; GPa measured in the reverse direction, in vitro
Sequence (P06737 whole entry): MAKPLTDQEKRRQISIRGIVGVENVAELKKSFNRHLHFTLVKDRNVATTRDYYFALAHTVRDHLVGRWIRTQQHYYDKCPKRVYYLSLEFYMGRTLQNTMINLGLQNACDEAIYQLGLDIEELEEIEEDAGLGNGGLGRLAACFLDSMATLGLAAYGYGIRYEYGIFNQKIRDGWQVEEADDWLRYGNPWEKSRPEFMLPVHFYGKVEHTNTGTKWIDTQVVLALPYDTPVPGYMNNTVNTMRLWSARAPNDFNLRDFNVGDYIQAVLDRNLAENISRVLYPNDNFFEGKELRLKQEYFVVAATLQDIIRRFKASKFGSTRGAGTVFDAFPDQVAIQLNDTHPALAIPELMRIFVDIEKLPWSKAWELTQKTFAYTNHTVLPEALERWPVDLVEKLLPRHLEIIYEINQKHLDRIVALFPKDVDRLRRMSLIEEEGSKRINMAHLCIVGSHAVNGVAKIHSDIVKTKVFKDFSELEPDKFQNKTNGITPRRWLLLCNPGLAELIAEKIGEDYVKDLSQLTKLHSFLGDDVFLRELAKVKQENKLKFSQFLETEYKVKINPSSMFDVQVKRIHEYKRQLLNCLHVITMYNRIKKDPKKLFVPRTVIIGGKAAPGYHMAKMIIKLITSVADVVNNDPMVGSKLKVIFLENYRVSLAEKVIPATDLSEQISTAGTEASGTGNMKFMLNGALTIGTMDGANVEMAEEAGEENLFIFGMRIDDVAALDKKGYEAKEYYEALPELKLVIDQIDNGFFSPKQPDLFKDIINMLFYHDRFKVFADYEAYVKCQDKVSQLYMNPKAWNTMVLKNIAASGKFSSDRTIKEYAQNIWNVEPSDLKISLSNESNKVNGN
Label NO if % inhibition at 10 μM falls below 70%; label YES in every other case.

Check out these entries, answers already filled in.
Exercise: Does O=C(NC(=O)c1ccc(Cl)cc1Cl)Nc1cc(C(=O)O)ccc1Cl have a reported % inhibition at 10 μM of at least 70%?
Solution: YES

Exercise: And COc1ccc(C(=O)O)cc1NC(=O)NC(=O)c1ccc(C)cc1C ?
Solution: NO

Exercise: Moving on to the next molecule: O=C(NC(=O)c1ccc(Cl)cc1Cl)Nc1cc(C(=O)O)ccc1C(F)(F)F
Solution: NO

Exercise: Please do the same for O=C(NC(=O)c1ccc(Cl)cc1F)Nc1cc(C(=O)O)ccc1Cl as well.
Solution: NO

Exercise: And O=C(NC(=O)c1ccc(Cl)cc1Cl)Nc1cc(C(=O)O)ccc1Oc1ccccc1 ?
Solution: NO

Exercise: Also O=C(NC(=O)c1ccc(Cl)cc1Cl)Nc1cc(C(=O)O)ccc1OCCO ?
Solution: YES

Exercise: // next record COc1ccc(C(=O)O)cc1NC(=O)NC(=O)c1ccccc1Cl
Solution: YES

Continuing:
Exercise: Does % inhibition at 10 μM meet or surpass 70% for O=C(NC(=O)c1ccc(Cl)cc1Cl)Nc1cc(C(=O)O)ccc1O ?
Solution: YES
